Where do these numbers come from? They come from paper PMC6895199.

Would you kindly list inhibition at 20 µM for each of these molecules?
Target: HuNoV (GII.4) RdRp (Norovirus Hu/GII.4/Sydney/NSW0514/2012/AU)
Experiment: Quantitative fluorescent RdRp activity assay (PicoGreen, poly(C) template)
Assay type: biochemical, human norovirus Sydney 2012
Conditions: 20 µM; read-out: inhibition of HuNoV RdRp activity at fixed concentration

Please give the measured inhibition at 20 µM for this molecule: "Cc1ccc(C(=O)NC(=S)Nc2ccc(N3CCN(C(=O)c4ccccc4)CC3)cc2)cc1"
~20%

Please give the measured inhibition at 20 µM for this molecule: "O=C(NC(=S)Nc1ccc(N2CCN(C(=O)c3ccccc3)CC2)cc1)c1ccccc1"
~20%

Please give the measured inhibition at 20 µM for this molecule: O=C(NC(=S)Nc1ccc(N2CCN(C(=O)c3cccs3)CC2)cc1)c1sc2ccccc2c1Cl [Compound 48, reference compound]
20%

---

Assay: Cytotoxicity by the MTS method on uninfected cells
Type: cell-based
Details: mouse, uninfected RAW 264.7 cells, Table 2, at least three independent experiments
readout-type: CC50 at 3 days

Please give the measured CC50 at 3 days for this molecule: "Cc1ccc(C(=O)NC(=S)Nc2ccc(N3CCN(C(=O)c4cccs4)CC3)cc2)cc1"
> 100 µM

Please give the measured CC50 at 3 days for this molecule: "O=C(NC(=S)Nc1ccc(N2CCN(C(=O)c3cccs3)CC2)cc1)c1cc2ccccc2s1"
> 100 µM

Please give the measured CC50 at 3 days for this molecule: "O=C(NC(=S)Nc1ccc(N2CCN(C(=O)c3ccccc3)CC2)cc1)c1ccccc1"
61.9 µM

---

Test system: HuNoV GI.1 replicon
Test: HuNoV GI replicon assay (HGT-NV cells, qRT-PCR)
Assay type: cell-based, human norovirus GI.1
Conditions: read-out: EC50 values (column head printed 'M'); HuNoV GI replicon in HGT-1 cells; 72 h; replicon RNA by qRT-PCR
Would you kindly list EC50 for each of these compounds?
Express the result in µM but write the number alone.

Please give the measured EC50 for this compound: "O=C(NC(=S)Nc1ccc(N2CCN(S(=O)(=O)c3cccs3)CC2)cc1)c1ccccc1"
10.9

Please give the measured EC50 for this compound: "Cc1ccc(C(=O)NC(=S)Nc2ccc(N3CCN(C(=O)c4cccs4)CC3)cc2)cc1"
6.1

Please give the measured EC50 for this compound: "O=C(NC(=S)Nc1ccc(N2CCN(S(=O)(=O)c3ccccc3)CC2)cc1)c1ccccc1"
8.5

---

Experiment: Cytotoxicity by the MTS method on uninfected cells
Assay type: cell-based
Details: mouse, uninfected RAW 264.7 cells, Supplementary Table S1, at least two independent experiments
Would you kindly list CC50 at 3 days for each of these compounds?

Please give the measured CC50 at 3 days for this compound: O=C1NN(c2ccccc2)C(=O)/C1=C/c1ccc(-c2ccc(S(=O)(=O)Nc3nc4ccccc4[nH]3)cc2)o1 [Compound 6]
> 100 µM

Please give the measured CC50 at 3 days for this compound: O=C(Cc1cccc(-c2ccccc2)c1)Nc1ccc(S(=O)(=O)Nc2ccccc2)cc1 [Compound 7]
20 µM

Please give the measured CC50 at 3 days for this compound: O=C1NN(c2cccc(C(=O)O)c2)C(=O)/C1=C/c1ccc(-c2ccc(S(=O)(=O)Nc3ccccc3)cc2)o1 [Compound 3]
> 100 µM

Please give the measured CC50 at 3 days for this compound: O=C1NN(c2ccccc2)C(=O)/C1=C/c1ccc(-c2ccc(S(=O)(=O)Nc3ncccn3)cc2)o1 [Compound 4]
60 µM

Please give the measured CC50 at 3 days for this compound: O=C1NN(c2ccc(C(=O)O)cc2)C(=O)/C1=C/c1ccc(-c2ccc(S(=O)(=O)Nc3ccccc3)cc2)o1 [Compound 2]
> 100 µM

Please give the measured CC50 at 3 days for this compound: CCOC(=O)c1ccc(N2NC(=O)/C(=C\c3ccc(-c4ccc(S(=O)(=O)Nc5ccccc5)cc4)o3)C2=O)cc1 [Compound 34]
> 100 µM

Please give the measured CC50 at 3 days for this compound: O=C1NN(c2ccccc2)C(=O)/C1=C/c1ccc(-c2ccc(S(=O)(=O)Nc3ncco3)cc2)o1 [Compound 5]
> 100 µM

Please give the measured CC50 at 3 days for this compound: CCOC(=O)c1cccc(N2NC(=O)/C(=C\c3ccc(-c4ccc(S(=O)(=O)Nc5ccccc5)cc4)o3)C2=O)c1 [Compound 35]
> 100 µM
